Numbers sourced from paper PMC11249646.

Can you tell me IC50 for the items I'm about to list?
Target: CIB1 and αIIb interaction (CIB1-GST : F-αIIb peptide) (Homo sapiens, UniProt Q99828)
Construct: made in house; host or cells: BL-21 plus RIL cells (E. coli)
Sequence (Q99828 whole entry): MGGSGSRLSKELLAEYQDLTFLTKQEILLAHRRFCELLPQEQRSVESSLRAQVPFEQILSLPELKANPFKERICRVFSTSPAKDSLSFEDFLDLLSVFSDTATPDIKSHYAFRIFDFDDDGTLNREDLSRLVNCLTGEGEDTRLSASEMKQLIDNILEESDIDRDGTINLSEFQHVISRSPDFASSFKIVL
Experiment: FP assay, 1536-well qHTS format (primary and confirmatory screen)
Assay type: binding
Details: confirmatory screen; read-out: CONFIRMATORY SCREEN IC50
Quick note: give the figure in µM, leave out the unit.

Consider the compound shown here: O=C(Nc1nc(-c2ccccc2)cs1)c1ccncc1NS(=O)(=O)c1ccc2ccccc2c1.O=C(O)C(F)(F)F [NCGC00345031-01] What is its recorded IC50?
20

For the compound NS(=O)(=O)c1ccc(Cc2c(-c3cccc(-c4ccccc4F)c3)nn(-c3nc(C(=O)O)cs3)c2O)cc1.O=C(O)C(F)(F)F [NCGC00356464-01] , what IC50 is on record?
39.8

Requested field: IC50. Item: O=C1C(I)=CC(=C(c2cc(I)c([O-])c(I)c2)c2ccccc2C(=O)[O-])C=C1I.[Na+].[Na+] [NCGC00161636-02]
11.2

What value of measured IC50 is listed for O=C(CN(c1cccc(Br)c1)S(=O)(=O)c1ccccc1)NN=CC1=CC(=[N+]([O-])O)C=CC1=O.O=C(O)C(F)(F)F [NCGC00248455-01] ?
31.6

Any idea what its IC50 is? The compound is Cc1c(C)n(Cc2ccc(-c3ccccc3C(=O)O)cc2)c2ccc(C(=O)N[C@@H](C)c3ccc([N+](=O)[O-])cc3)cc12 [NCGC00347955-04]
22.4

For CC(=O)Oc1cccc2c1C(=O)c1c(OC(C)=O)cc(C(=O)O)cc1C2=O [NCGC00018274-05] , what is its reported IC50?
11.2

Which IC50 value belongs to CC(=O)N1CCN(c2ccc(OCc3nn(C)c(C)c3-c3cccc4c(CCCOc5cccc6ccccc56)c(C(=O)O)n(Cc5cccnc5)c34)cc2)CC1 [NCGC00347174-02] ?
22.4

What does the data say about its IC50? Entry: Cc1ccc(S(=O)(=O)Nc2cnccc2C(=O)Nc2nc(-c3ccc(C)c(C)c3)cs2)cc1.O=C(O)C(F)(F)F [NCGC00318954-01]
22.4

Name the recorded IC50 for CNC(=S)N/N=C1\C(=O)Nc2ccccc21.O=C(O)C(F)(F)F [NCGC00229528-01] .
14.1

Requested read-out: IC50. Entry: CCc1nnc(NS(=O)(=O)c2ccc(NC(=S)NC(=O)/C=C/c3ccc(F)cc3)cc2)s1 [NCGC00351476-01]
8.9

# input compound: C=CCNc1oc(-c2cccc3ccccc23)nc1C#N.O=C(O)C(F)(F)F [NCGC00068824-04] ; wanted: its IC50
15.8

Request the reported IC50 associated with Oc1ccc2ccccc2c1SSc1c(O)ccc2ccccc12 [NCGC00186047-02, IPA-3, reference compound]
2.8

Recorded IC50 for CC[S+]([O-])c1nc(-c2cccc(OCc3ccccc3)c2)cc(C(F)(F)F)n1 (centres unmarked) [NCGC00379201-03] , please?
0.4

Recorded IC50 for CCC(=O)NC(c1cccs1)c1cc([N+](=O)[O-])c2cccnc2c1O (centres unmarked) [NCGC00182956-10] , please?
50.1
